Data provenance is patent US20100280227A1.

- Target Of Assay: T1, human BR3 extracellular domain (human, UniProt Q96RJ3 1-61)
- T1 construct: biotinylated where used as tracer; also called hBR3-ECD; BR3-ECD
- Test Summary: phage competition ELISA
Here, each record is paired with measured IC50 data.
Endpoint Name: IC50 (nM)

binder="V3-46s-1 phage clone (Fab, V domains shown) VH: EVQLVESGGGLVQPGGSLRLSCAASGFTISSSSIHWVRQAPGKGLEWVAWVLPSVGFTDYADSVKGRFTISADTSKNTAYLQMNSLRAEDTAVYYCARRVCYNRLGVCAGGMDYWGQGTLVTVSS VL: DIQMTQSPSSLSASVGDRVTITCRASEDIATSVAWYQQKPGKAPKLLIFAASFLYSGVPSRFSGSGSGTDFTLTISSLQPEDFATYYCQQSQISPPTFGQGTKVEIK" endpoint_name=IC50 experimental_result=0.07
binder="V3-46s-9 Fab (Fab, V domains shown, soluble Fab in SPR; also called V46s-9) VH: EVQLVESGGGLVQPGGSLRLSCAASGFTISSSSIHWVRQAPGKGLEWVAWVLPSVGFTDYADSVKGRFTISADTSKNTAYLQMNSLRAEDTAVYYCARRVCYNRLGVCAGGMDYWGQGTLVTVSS VL: DIQMTQSPSSLSASVGDRVTITCRASEDISTAVAWYQQKPGKAPKLLIFAASYLYSGVPSRFSGSGSGTDFTLTISSLQPEDFATYYCQQSQISPPTFGQGTKVEIK" endpoint_name=IC50 experimental_result=0.053
binder="V3-46s-10 phage clone (Fab, V domains shown) VH: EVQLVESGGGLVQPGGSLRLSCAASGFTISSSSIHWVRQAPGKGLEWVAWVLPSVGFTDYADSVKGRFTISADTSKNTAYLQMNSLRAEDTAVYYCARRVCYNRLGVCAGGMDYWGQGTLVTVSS VL: DIQMTQSPSSLSASVGDRVTITCRASEDISSAVAWYQQKPGKAPKLLIFAASYLFSGVPSRFSGSGSGTDFTLTISSLQPEDFATYYCQQSQVSPPTFGQGTKVEIK" endpoint_name=IC50 experimental_result=0.05
binder="V3-46s-7 phage clone (Fab, V domains shown) VH: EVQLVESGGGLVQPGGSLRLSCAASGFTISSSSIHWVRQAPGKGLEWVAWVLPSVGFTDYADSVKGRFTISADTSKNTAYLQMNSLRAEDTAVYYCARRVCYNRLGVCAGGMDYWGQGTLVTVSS VL: DIQMTQSPSSLSASVGDRVTITCRASEDISSSVAWYQQKPGKAPKLLIFSASFLFSGVPSRFSGSGSGTDFTLTISSLQPEDFATYYCQQSEVSPPTFGQGTKVEIK" endpoint_name=IC50 experimental_result=0.19
